Examples of sequences with documented PBM binding z-score follow.
- Tested on: LXRb:RXRa (NR concentration 270 nM, RXRa partner concentration 90 nM)
- assay.method.text: PBM binding z-score (relative to random genomic background probes); higher = stronger binding; sequences stand for … in GC…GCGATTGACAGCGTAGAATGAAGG

{"columns": ["construct.sequence", "PBM binding z-score"],
 "data": [
  ["TCGAGTAGGTTACGGGGTCATTCAGGGATGAAGA", 5.33],
  ["CAAACTAGGTCAAAGGTCAAAATCGAGCCAACCA", 7.22],
  ["CGAACTAGGTGAAAGGACAGTGAAAGGCGACGTA", -0.115]
]}

----------
- System: PPARg:RXRa IVT, anti-PPARg (NR concentration 270 nM, RXRa partner concentration 90 nM)
- assay.method.text: PBM binding z-score (relative to random genomic background probes); higher = stronger binding; sequences stand for … in GC…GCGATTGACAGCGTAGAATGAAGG
recorded.endpoint: PBM binding z-score

{"columns": ["construct.sequence", "recorded.endpoint", "observed.result"],
 "data": [
  ["CCGAGTAGGGTACGAGGGGGCATTCAGTGCGAAT", "PBM binding z-score", 3.56],
  ["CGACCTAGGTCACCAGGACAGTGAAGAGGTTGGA", "PBM binding z-score", 4.65],
  ["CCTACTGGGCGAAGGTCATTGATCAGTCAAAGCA", "PBM binding z-score", 2.33],
  ["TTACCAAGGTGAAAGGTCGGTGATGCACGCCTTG", "PBM binding z-score", 4.51],
  ["TGGCCTAGGTCATGCGGGCCAGTATAGTGTCGGC", "PBM binding z-score", 2.44],
  ["CGAACGAGGTCAGAACAGGACAGTGAAGGATGAT", "PBM binding z-score", 4.26],
  ["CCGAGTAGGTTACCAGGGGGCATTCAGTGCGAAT", "PBM binding z-score", 4.24],
  ["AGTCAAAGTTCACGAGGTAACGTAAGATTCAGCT", "PBM binding z-score", 4.03],
  ["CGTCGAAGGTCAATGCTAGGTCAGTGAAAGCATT", "PBM binding z-score", 3.93],
  ["CCGAGTAGGTTACGTGGGGGCATTCAGTGCGAAT", "PBM binding z-score", 4.6],
  ["CGAACTAGGTCGAAGGACAGTGAAAGGCGACGTA", "PBM binding z-score", 5.17],
  ["AGTCAAAGTTCATCTTGGTAACGTAAGATATGCT", "PBM binding z-score", 2.63],
  ["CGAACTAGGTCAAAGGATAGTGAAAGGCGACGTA", "PBM binding z-score", 8.26],
  ["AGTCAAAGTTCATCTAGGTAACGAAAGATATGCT", "PBM binding z-score", 4.11],
  ["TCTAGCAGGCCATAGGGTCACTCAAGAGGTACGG", "PBM binding z-score", 1.69],
  ["ATATCTAGGTAAAAGTTCAGTGAATCCCGAGGAT", "PBM binding z-score", 6.34]
]}

----------
- Tested on: PPARa:RXRa (NR concentration 270 nM, RXRa partner concentration 90 nM)
- assay.method.text: PBM binding z-score (relative to random genomic background probes); higher = stronger binding; sequences stand for … in GC…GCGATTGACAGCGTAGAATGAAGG
Mark label 1 for reported PBM binding z-score of 4 or greater; mark label 0 for anything smaller.

{"columns": ["construct.sequence", "category"],
 "data": [
  ["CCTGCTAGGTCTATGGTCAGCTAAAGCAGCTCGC", "label 0"],
  ["CTATGTAGGTTAAGGGGGTCATTAAGTTTGAAAG", "label 1"],
  ["CCTTACGGGTCAAGGTTATACCACGGGTGGTACG", "label 1"],
  ["CAAACTAGGTCAAAGGTCAACGTCGAGCCAACCA", "label 1"],
  ["CTATGTAGGTTAAGGGGGTCATTCACTTTGAAAG", "label 1"],
  ["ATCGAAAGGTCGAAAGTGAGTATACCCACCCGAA", "label 0"],
  ["ATGTGTAGGTTAGGGTCATTCAGAAAGTAGGGAA", "label 1"],
  ["ACTAGTTGGTCACCTGAGGTCACACACAATTCGG", "label 1"],
  ["CGCACTAGGTCAAAGGACAGTGAAAGGCGACGTA", "label 1"],
  ["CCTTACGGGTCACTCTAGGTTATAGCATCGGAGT", "label 1"],
  ["CGAATTAGGTCAAAGGACAGTGAAAGGCGACGTA", "label 1"],
  ["GCATACGGGTCAAAGGTTATAGCATGAATAGAAT", "label 1"],
  ["TTACCGAGGTGAAAGGTCGTTGATGCACGCCTTG", "label 1"],
  ["TTGAGTAGGTTACGGGGGCATTCAGGGATGAAGA", "label 1"],
  ["GCTGCTAGGTCAGGTTGGTCAGCTAACGGGTACG", "label 0"],
  ["CCTAGTTGGTCAAGGTCCCACACGCTATAGGTAC", "label 0"],
  ["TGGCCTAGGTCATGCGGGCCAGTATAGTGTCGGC", "label 0"],
  ["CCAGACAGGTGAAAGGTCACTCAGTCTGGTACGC", "label 1"],
  ["CAAAGTAGGTCACGAAAGGTCAAAGTCGAATGAC", "label 1"],
  ["CGAACTAGGTCAAAGGACAGTAAAAGGCGACGTA", "label 1"],
  ["CGTCAAAGTTCAAGGCAACGTAACAGAAAGCAGC", "label 1"],
  ["AGTCAAATTTCATCTAGGTAACGTAAGATATGCT", "label 0"],
  ["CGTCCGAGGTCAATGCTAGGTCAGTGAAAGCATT", "label 1"],
  ["CGTACTAGGTCACCAGGACAGTGAAGAGGTTGGA", "label 1"],
  ["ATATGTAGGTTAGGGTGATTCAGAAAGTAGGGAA", "label 0"],
  ["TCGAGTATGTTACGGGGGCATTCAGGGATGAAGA", "label 0"],
  ["TCGAGTAGGTTACGGGGGGATTCAGGGATGAAGA", "label 0"],
  ["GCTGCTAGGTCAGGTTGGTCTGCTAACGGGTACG", "label 0"],
  ["CAAACTAGGTCACAGAGGTCAAACTCCGTGCGTA", "label 1"],
  ["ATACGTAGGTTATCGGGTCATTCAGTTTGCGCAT", "label 0"],
  ["CCGAGTAGGTTACGAGGGGGAATTCAGTGCGAAT", "label 0"],
  ["CTATGTAGGTTTAGGGGGTCATTCAGTTTGAAAG", "label 1"],
  ["TAGCCTAGGACATGCGGGCCAGTATAGTGTCGGC", "label 0"],
  ["CGATGTAGGTTAAGGGGGTCATTCAGTTTGAAAG", "label 1"],
  ["GCTGCTAGGTCAACTGAAGGTCAGCTAAAGCTCG", "label 1"]
]}

----------
- System: PPARg:RXRa DBDmut IVT, anti-RXR (DBD mutation: RXRa K156A/R161A, NR concentration 270 nM, RXRa partner concentration 90 nM)
- assay.method.text: PBM binding z-score (relative to random genomic background probes); higher = stronger binding; sequences stand for … in GC…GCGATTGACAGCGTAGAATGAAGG
recorded.endpoint: PBM binding z-score

{"columns": ["construct.sequence", "recorded.endpoint", "observed.result"],
 "data": [
  ["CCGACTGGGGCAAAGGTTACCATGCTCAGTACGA", "PBM binding z-score", 4.91],
  ["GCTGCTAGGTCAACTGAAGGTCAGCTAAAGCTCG", "PBM binding z-score", 5],
  ["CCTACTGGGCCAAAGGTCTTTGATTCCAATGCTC", "PBM binding z-score", 5.05],
  ["GCTGCTAGGTCAACTGATGGTGAGCTAAAGCTCG", "PBM binding z-score", 5.09]
]}

----------
- Test system: PXR:RXRa (NR concentration 270 nM, RXRa partner concentration 90 nM)
- assay.method.text: PBM binding z-score (relative to random genomic background probes); higher = stronger binding; sequences stand for … in GC…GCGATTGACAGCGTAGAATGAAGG

{"columns": ["construct.sequence", "target.or.system", "PBM binding z-score"],
 "data": [
  ["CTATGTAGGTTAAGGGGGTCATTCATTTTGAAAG", "PXR:RXRa (NR concentration 270 nM, RXRa partner concentration 90 nM)", 5.45],
  ["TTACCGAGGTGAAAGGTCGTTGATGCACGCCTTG", "PXR:RXRa (NR concentration 270 nM, RXRa partner concentration 90 nM)", 4.58],
  ["GCTAGTTTGTCAGTAAAAGGTCACACACCGGTCG", "PXR:RXRa (NR concentration 270 nM, RXRa partner concentration 90 nM)", 4.95],
  ["TCGAGTAGGTTACGGGTGCATTCAGGGATGAAGA", "PXR:RXRa (NR concentration 270 nM, RXRa partner concentration 90 nM)", 1.62],
  ["ATCGAATGGTCGAAGGTGAGTATACCCACCCGAA", "PXR:RXRa (NR concentration 270 nM, RXRa partner concentration 90 nM)", -0.0379],
  ["TCAAGTAGGTTACGGGGGCATTCAGGGATGAAGA", "PXR:RXRa (NR concentration 270 nM, RXRa partner concentration 90 nM)", 3.45],
  ["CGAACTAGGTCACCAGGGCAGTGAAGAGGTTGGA", "PXR:RXRa (NR concentration 270 nM, RXRa partner concentration 90 nM)", 1.7],
  ["TAGCCTAGGTCATAGGCCAGTATACCACGCGAAC", "PXR:RXRa (NR concentration 270 nM, RXRa partner concentration 90 nM)", 1.47],
  ["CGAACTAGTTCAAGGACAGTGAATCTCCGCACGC", "PXR:RXRa (NR concentration 270 nM, RXRa partner concentration 90 nM)", 0.352],
  ["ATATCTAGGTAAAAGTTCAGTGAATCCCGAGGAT", "PXR:RXRa (NR concentration 270 nM, RXRa partner concentration 90 nM)", 2.33],
  ["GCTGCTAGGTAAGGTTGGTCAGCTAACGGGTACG", "PXR:RXRa (NR concentration 270 nM, RXRa partner concentration 90 nM)", -0.363],
  ["CTATGTAAGTTAAGGGGGTCATTCAGTTTGAAAG", "PXR:RXRa (NR concentration 270 nM, RXRa partner concentration 90 nM)", 5.6],
  ["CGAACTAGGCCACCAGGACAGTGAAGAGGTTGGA", "PXR:RXRa (NR concentration 270 nM, RXRa partner concentration 90 nM)", -0.874],
  ["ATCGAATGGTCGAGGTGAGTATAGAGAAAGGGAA", "PXR:RXRa (NR concentration 270 nM, RXRa partner concentration 90 nM)", -0.283],
  ["ATATGTAGGTTAGGGTCTTTCAGAAAGTAGGGAA", "PXR:RXRa (NR concentration 270 nM, RXRa partner concentration 90 nM)", 0.93],
  ["CCGATTAGGTTACGAGGGGGCATTCAGTGCGAAT", "PXR:RXRa (NR concentration 270 nM, RXRa partner concentration 90 nM)", 4.69],
  ["CGAACTGGGTCACCAGGACAGTGAAGAGGTTGGA", "PXR:RXRa (NR concentration 270 nM, RXRa partner concentration 90 nM)", 1.55],
  ["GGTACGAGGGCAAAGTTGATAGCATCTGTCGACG", "PXR:RXRa (NR concentration 270 nM, RXRa partner concentration 90 nM)", 0.895]
]}
